# Species: Rattus norvegicus
# ASSAY PROCEDURE: Open TG-GATES - Regimen: Daily Repeat
# Type: toxicity, organism-based, Sprague-Dawley
# Set-up: regimen Daily Repeat, gender Male, age 6 weeks
# COND: in vivo, po, 0 mg/kg, […], tissue Blood, route gavage, dose level Control, time 28 day
READOUT NAME: WBC (x10_2/uL)
Numeric answer only, unit x10_2/uL assumed.

Example entries begin here.
                                   compound  readout_name  unit_label  test_value
0  CN(C)CCC=C1c2ccccc2CCc2ccccc21 [AMITRIPTYLINE]           WBC    x10_2/uL       120.5
1    Clc1ccccc1CN1CCc2sccc2C1 [TICLOPIDINE]           WBC    x10_2/uL          97

Challenge: # query: WBC of entry O=C(O)c1cn(C2CC2)c2cc(N3CCNCC3)c(F)cc2c1=O [CIPROFLOXACIN]
Response given: 132.8

Challenge: What value of WBC has been recorded for this entry: CC(=O)Oc1ccccc1C(=O)O [ASPIRIN]
Response given: 109

Challenge: Field request: WBC | item: CCCC(CCC)C(=O)O [VALPROIC ACID]
Response given: 129.7

Challenge: // returns reported WBC for input COc1ccc(Cc2nccc3cc(OC)c(OC)cc23)cc1OC [PAPAVERINE]
Response given: 123.2

Challenge: WBC lookup needed for COc1ccc2c(c1)c(CC(=O)O)c(C)n2C(=O)c1ccc(Cl)cc1 [INDOMETHACIN] , thanks.
Response given: 153.4

Challenge: What does the data say about its WBC? Entry: CCc1cc(C(N)=S)ccn1 [ETHIONAMIDE]
Response given: 122.5

Challenge: For CSc1ccc2c(c1)N(CCC1CCCCN1C)c1ccccc1S2 (stereo unspecified) [THIORIDAZINE] , what is its reported WBC?
Response given: 131.4

Challenge: What value of measured WBC is listed for NC(=O)N1c2ccccc2C=Cc2ccccc21 [CARBAMAZEPINE] ?
Response given: 105.6

Challenge: May I ask what WBC has been recorded for NC(=O)N/N=C/c1ccc([N+](=O)[O-])o1 [NITROFURAZONE] ?
Response given: 74.7

----------
# Organism: Rattus norvegicus
# ASSAY PROCEDURE: Open TG-GATES - Regimen: Daily Repeat
# Format: toxicity, organism-based, Sprague-Dawley
# Parameters: regimen Daily Repeat, gender Male, age 6 weeks
# COND: in vivo, po, 0 mg/kg, 72 h, tissue Plasma, route gavage, dose level Control, time 3 day
READOUT NAME: RALB (g/dL)
Respond with the bare value in g/dL.

Observe how each entry below is paired with its result.
MOLECULE	UNIT LABEL	RALB
NC(=O)N1c2ccccc2C=Cc2ccccc21 [CARBAMAZEPINE]	g/dL	3.3
CO[C@H]1/C=C/O[C@@]2(C)Oc3c(C)c(O)c4c(O)c(c(/C=N/N5CCN(C)CC5)c(O)c4c3C2=O)NC(=O)/C(C)=C\C=C\[C@H](C)[C@H](O)[C@@H](C)[C@@H](O)[C@@H](C)[C@H](OC(C)=O)[C@@H]1C	g/dL	3.7
O=C(O)c1cc(/N=N/c2ccc(S(=O)(=O)Nc3ccccn3)cc2)ccc1O	g/dL	3.4
CCc1cc(C(N)=S)ccn1 [ETHIONAMIDE]	g/dL	3.6
CN(C)CCC=C1c2ccccc2CCc2ccccc21	g/dL	2.7

Challenge: Requested read-out: RALB. Entry: "C[C@H](CS)C(=O)N1CCC[C@H]1C(=O)O"
Response given: 3.8

Challenge: Which value of RALB has been reported for "CC(=O)Oc1ccccc1C(=O)O" in the records?
Response given: 3.4

Challenge: Entry under review: "Clc1ccccc1CN1CCc2sccc2C1" . Reported RALB?
Response given: 3.4

Challenge: Look up RALB: "CCCC(CCC)C(=O)O"
Response given: 3.3

Challenge: Endpoint output: RALB of CSc1ccc2c(c1)N(CCC1CCCCN1C)c1ccccc1S2 (stereo not given) . Value?
Response given: 4.2

Challenge: GET /values?readout=RALB&item= "COc1ccc2c(c1)c(CC(=O)O)c(C)n2C(=O)c1ccc(Cl)cc1"
Response given: 3.9

Challenge: Endpoint output: RALB of "NC(=O)N/N=C/c1ccc([N+](=O)[O-])o1" . Value?
Response given: 2.6

Challenge: Please report the recorded RALB for "Cn1c(=O)c2[nH]cnc2n(C)c1=O.O" .
Response given: 3

Challenge: Reported RALB, molecule "COc1ccc(Cc2nccc3cc(OC)c(OC)cc23)cc1OC" : ____
Response given: 3

Challenge: State the recorded RALB for this entry: "O=C(O)c1cn(C2CC2)c2cc(N3CCNCC3)c(F)cc2c1=O"
Response given: 4

----------
# Species on record: Rattus norvegicus
# ASSAY PROCEDURE: Open TG-GATES - Regimen: Daily Repeat
# Assay type: toxicity, organism-based, Sprague-Dawley
# Parameters: regimen Daily Repeat, gender Male, age 6 weeks
# COND: in vivo, po, 0 mg/kg, […], tissue Blood, route gavage, dose level Control, time 14 day
READOUT NAME: Ret
Write down the value, and be sure its unit follows.

Challenge: Which Ret is listed for CO[C@H]1/C=C/O[C@@]2(C)Oc3c(C)c(O)c4c(O)c(c(/C=N/N5CCN(C)CC5)c(O)c4c3C2=O)NC(=O)/C(C)=C\C=C\[C@H](C)[C@H](O)[C@@H](C)[C@@H](O)[C@@H](C)[C@H](OC(C)=O)[C@@H]1C [RIFAMPIN] ?
Response given: 3.5%

Challenge: Recorded Ret of CCc1cc(C(N)=S)ccn1 [ETHIONAMIDE] , please.
Response given: 4%

Challenge: Return reported Ret; argument: COc1ccc2c(c1)c(CC(=O)O)c(C)n2C(=O)c1ccc(Cl)cc1 [INDOMETHACIN]
Response given: 5.1%

Challenge: Which value of Ret has been reported for CN(C)CCC=C1c2ccccc2CCc2ccccc21 [AMITRIPTYLINE] in the records?
Response given: 4.7%

----------
# Organism: Rattus norvegicus
# ASSAY PROCEDURE: Open TG-GATES - Regimen: Single
# Type: toxicity, organism-based, Sprague-Dawley
# Parameters: regimen Single, gender Male, age 6 weeks
# COND: in vivo, po, 100 mg/kg, 6 h, tissue Blood, route gavage, dose level Low
READOUT NAME: Eos (%)
Only the number, expressed in %, is required.

>>> print(df.to_string())
                                   compound  unit_label  test_value
0          C[C@H](CS)C(=O)N1CCC[C@H]1C(=O)O           %           1
1  O=C(O)c1cn(C2CC2)c2cc(N3CCNCC3)c(F)cc2c1=O           %         0.4
2  O=C(O)c1cc(/N=N/c2ccc(S(=O)(=O)Nc3ccccn3)cc2)ccc1O           %           1
3                  Clc1ccccc1CN1CCc2sccc2C1           %           1

Challenge: Fill in: Eos of CCc1cc(C(N)=S)ccn1 [ETHIONAMIDE] is ___
Response given: 0.8

----------
# Species on record: Rattus norvegicus
# ASSAY PROCEDURE: Open TG-GATES - Regimen: Daily Repeat
# Type: toxicity, organism-based, Sprague-Dawley
# Design: regimen Daily Repeat, gender Male, age 6 weeks
# COND: in vivo, po, 0 mg/kg, […], tissue Kidney, route gavage, dose level Control, time 28 day
READOUT NAME: KIDNEY_R (g)
Give the quantity in g, number only.

Some solved cases for reference:
                                   compound  readout_name  test_value
0                     CC(=O)Oc1ccccc1C(=O)O      KIDNEY_R         1.4
1  O=C(O)c1cn(C2CC2)c2cc(N3CCNCC3)c(F)cc2c1=O      KIDNEY_R         1.3
2              Cn1c(=O)c2[nH]cnc2n(C)c1=O.O      KIDNEY_R         1.4
3  CSc1ccc2c(c1)N(CCC1CCCCN1C)c1ccccc1S2 (stereo not given)      KIDNEY_R         1.5

Challenge: Data request, read-out KIDNEY_R, for "CN(C)CCC=C1c2ccccc2CCc2ccccc21"
Response given: 1.4

----------
# Species on record: Rattus norvegicus
# ASSAY PROCEDURE: Open TG-GATES - Regimen: Single
# Assay type: toxicity, organism-based, Sprague-Dawley
# Set-up: regimen Single, gender Male, age 6 weeks
# COND: in vivo, po, 0 mg/kg, 9 h, tissue Blood, route gavage, dose level Control
Answer N if Eos is under 1%, and Y if it is 1% or more.

                                   compound  label
0  CSc1ccc2c(c1)N(CCC1CCCCN1C)c1ccccc1S2 (configuration not stated) [THIORIDAZINE]      Y
1           CC(=O)Oc1ccccc1C(=O)O [ASPIRIN]      N
2  Cn1c(=O)c2[nH]cnc2n(C)c1=O.O [THEOPHYLLINE]      N
3  O=C(O)c1cn(C2CC2)c2cc(N3CCNCC3)c(F)cc2c1=O [CIPROFLOXACIN]      N

Please examine the following record next.
Challenge: Record NC(=O)N/N=C/c1ccc([N+](=O)[O-])o1 [NITROFURAZONE] ; criterion: Eos no lower than 1%. Met?
Response given: N

Source of measurements: ChEMBL document CHEMBL3885861
